- TARGET SYSTEM: PD-1/PD-L1 protein–protein interaction (Homo sapiens, UniProt Q9NZQ7)
- Construct: #71109 (biotinylated hPD-1); kit #72005
- Sequence (Q9NZQ7 19-239 limits assumed): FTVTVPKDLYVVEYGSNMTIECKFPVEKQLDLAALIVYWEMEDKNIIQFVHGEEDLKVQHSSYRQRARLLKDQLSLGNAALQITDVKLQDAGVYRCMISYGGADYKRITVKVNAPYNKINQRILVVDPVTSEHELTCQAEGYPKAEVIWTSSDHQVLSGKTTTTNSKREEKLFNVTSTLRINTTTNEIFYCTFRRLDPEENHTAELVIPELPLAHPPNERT
- MEASUREMENT PROTOCOL: PD-1/PD-L1 competitive ELISA
- TEST SETTINGS: PD-L1-coated plate, biotinylated PD-1, read-out: IC50, PD-1/PD-L1 blocking effect
PARAMETER MEASURED: pIC50
Remember the convention: pIC50 equals -log10 of concentration in molar.

Answer with the recorded pIC50 for the molecule listed here: O=c1c(O)c(-c2ccc(O)cc2)oc2cc(O)cc(O)c12 5.11

----------
- TARGET SYSTEM: recombinant PD-1 (hPD-1) (Homo sapiens)
- Sequence (Q15116 25-170 limits assumed): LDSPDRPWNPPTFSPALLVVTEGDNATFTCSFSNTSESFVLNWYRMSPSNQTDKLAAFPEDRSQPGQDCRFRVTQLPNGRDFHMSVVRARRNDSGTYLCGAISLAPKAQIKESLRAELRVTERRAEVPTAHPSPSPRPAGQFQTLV
- MEASUREMENT PROTOCOL: Surface plasmon resonance (Biacore T200)
- TEST SETTINGS: SPR, Biacore T200, recombinant PD-1
PARAMETER MEASURED: pKd
Scale explanation: pKd corresponds to minus log10 of a concentration expressed in moles per litre.

# return recorded pKd for input C[C@@H]1O[C@@H](Oc2cc(O)c3c(=O)c(O)c(-c4ccc(O)cc4)oc3c2)[C@H](O)[C@H](O)[C@H]1O [KR, kaempferol 7-O-rhamnoside] 3.81

----------
- TARGET SYSTEM: UniProt:Q15116
PARAMETER MEASURED: pKd
The read-out pKd is expressed as -log10 of concentration in moles per litre.

Report its pKd with UniProt:Q15116 as the test system: C[C@@H]1O[C@@H](Oc2cc(O)c3c(=O)c(O)c(-c4ccc(O)cc4)oc3c2)[C@H](O)[C@H](O)[C@H]1O [KR, kaempferol 7-O-rhamnoside] 4.51
